Reference source: ChEMBL document CHEMBL1201862

- System: HOP-62
- protocolSummary: NCI tumour cell line growth inhibition, 48 h
The source made the active and inactive calls. Cut-off read from the data, not from the text of the source: active = GI50 up to about 1.1 µM and inactive = higher.
Listed compounds paired with reported GI50

O=[N+]([O-])c1cc([N+](=O)[O-])c(Nn2c3ccccc3c3ccccc32)c([N+](=O)[O-])c1: 1.87 µM (inactive)

Consider the compound COC(=O)C1CC(=O)CCC1c1ccccc1 (stereo unspecified) and give its measured GI50.
> 100 µM (inactive)

Can you look up the measured GI50 of `Cn1c2ccccc2n2c3ncccc3/c(=N/CCCC(=O)O)c(C#N)c12` for me?
> 100 µM (inactive)

###

- System: SF-295
- protocolSummary: NCI tumour cell line growth inhibition, 48 h
Activity calls are given as the source filed them. Cut-off read from the data, not from the text of the source: active = GI50 up to about 1.1 µM and inactive = higher.
Please state which outcome applies, choosing from active, inactive

Reference set (3 entries):
Cc1cc(C)c(C(=O)O)c(SSc2cc(C)cc(C)c2C(=O)O)c1: inactive
COc1nc(NC2OC(COC(C)=O)C(OC(C)=O)C(OC(C)=O)C2OC(C)=O)c(/N=C/C=N/c2c(NC3OC(COC(C)=O)C(OC(C)=O)C(OC(C)=O)C3OC(C)=O)nc(OC)[nH]c2=O)c(=O)[nH]1 (centres undefined): inactive
COC1/C=C/C(C)C(C(C)C(OC)C(C)CCC(=O)C(C)C(C/C=C/N(C)C=O)OC)OC(=O)/C=C/C=C(\C)CC(OC)CC2=CC(=O)O[C@H](C2)C(C)C(OC)CC(OC)/C=C/C(C)C(OC)C1 (some centres undefined): active

Look up the recorded call for `CC(C)OP(=O)(OC(C)C)C(C)(C)O` in this test.
inactive
